Assay: solvent given as SMILES
Settings: in CC(C)=O
// reported fluorescence lifetime per item
quantity kind: fluorescence lifetime (ns)

[
  {
    "compound": "N#Cc1ccc(/C=C2\\OC(=O)c3cc(N)ccc32)cc1",
    "unit string": "ns",
    "result": 0.54
  },
  {
    "compound": "COC(=O)C(Cc1ccc2oc(-c3ccc(N(C)C)cc3)nc2c1)NC(=O)OC(C)(C)C (centres undefined)",
    "unit string": "ns",
    "result": 1.26
  },
  {
    "compound": "Cc1c2oc3c(C)c(N)cc(C(=O)NC4OC(=O)C(C(C)C)N(C)C(=O)CN(C)C(=O)C5CCCN5C(=O)C(C(C)C)NC4=O)c3nc-2c(C(=O)NC2OC(=O)C(C(C)C)N(C)C(=O)CN(C)C(=O)C3CCCN3C(=O)C(C(C)C)NC2=O)c(N)c1=O (centres undefined)",
    "unit string": "ns",
    "result": 0.93
  },
  {
    "compound": "CN(C)c1ccc(/C=C2\\CC/C(=C\\c3ccc(C#N)cc3)C2=O)cc1",
    "unit string": "ns",
    "result": 0.23
  }
]

* * *

Each item that follows carries a reported log10(fluorescence lifetime).
Experiment: solvent given as SMILES
Settings: in ClCCl
quantity kind: log10(fluorescence lifetime) (log10 of the value in ns)

[
  {
    "molecule": "CCOc1ccc(/C=C/c2nc(N3CCOCC3)c3c([n+]2[O-])CCCC3)cc1",
    "log10(fluorescence lifetime)": 0.91
  },
  {
    "molecule": "CCN(CC)c1ccc2c(c1)oc(=O)c1cnc3c(cnn3-c3ccccc3)c12",
    "log10(fluorescence lifetime)": 0.39
  },
  {
    "molecule": "F[B-]1(F)n2c(c3cccc4cccc2c43)=Nc2cccc(Cl)[n+]21",
    "log10(fluorescence lifetime)": 0.81
  },
  {
    "molecule": "COc1cc2cc(OC)c(-c3ccc([N+](=O)[O-])cc3)cc2cc1-c1ccc([N+](=O)[O-])cc1",
    "log10(fluorescence lifetime)": -0.28
  },
  {
    "molecule": "COc1ccc(C#Cc2c3ccccc3c(C#Cc3ccc(OC)cc3)c3cc4sc(C)cc4cc23)cc1",
    "log10(fluorescence lifetime)": 0.72
  },
  {
    "molecule": "CCCCCCCCCCCCCCCCN(CCCCCCCCCCCCCCCC)c1ccc(/C=C/c2cc[n+](Cc3cc(C[n+]4ccc(/C=C/c5ccc(N(CCCCCCCCCCCCCCCC)CCCCCCCCCCCCCCCC)cc5)cc4)cc(C[n+]4ccc(/C=C/c5ccc(N(CCCCCCCCCCCCCCCC)CCCCCCCCCCCCCCCC)cc5)cc4)c3)cc2)cc1",
    "log10(fluorescence lifetime)": -0.13
  },
  {
    "molecule": "CC1=CC(c2ccc3cc(N(C)C)ccc3c2)=[O+][B-](F)(F)O1",
    "log10(fluorescence lifetime)": 0.57
  },
  {
    "molecule": "COc1ccc2cc(/C=C/C3=[O+][B-](F)(F)OC(/C=C/c4ccc5cc(OC)ccc5c4)=C3c3ccccc3)ccc2c1",
    "log10(fluorescence lifetime)": 0.27
  },
  {
    "molecule": "C(=C\\c1ccc(/C=C/c2ccc(N(c3ccccc3)c3ccccc3)cc2)c2nsnc12)/c1ccc(N(c2ccccc2)c2ccccc2)cc1",
    "log10(fluorescence lifetime)": 0.61
  },
  {
    "molecule": "CCCn1c2cccc3c2[c+]2c4c1cccc4n(CCC)c1cccc(c12)n3CCC",
    "log10(fluorescence lifetime)": 0.80
  },
  {
    "molecule": "CCCCOc1ccc(-c2oc3cc4n(c3c2-c2ccc(OCCCC)cc2)[B-](F)(F)[N+]2=Cc3cc5oc(-c6ccc(OCCCC)cc6)c(-c6ccc(OCCCC)cc6)c5n3[B-](F)(F)[N+]2=C4)cc1",
    "log10(fluorescence lifetime)": 0.29
  },
  {
    "molecule": "CCN(CC)c1ccc2cc(C#N)/c(=N\\C(=O)c3ccc(F)cc3)oc2c1",
    "log10(fluorescence lifetime)": 0.58
  },
  {
    "molecule": "CC(C)[Si](C#Cc1cc2c(C#C[Si](C(C)C)(C(C)C)C(C)C)c(C#C[Si](C(C)C)(C(C)C)C(C)C)c3cc(C#C[Si](C(C)C)(C(C)C)C(C)C)cc4c(C#C[Si](C(C)C)(C(C)C)C(C)C)c(C#C[Si](C(C)C)(C(C)C)C(C)C)c(c1)c2c34)(C(C)C)C(C)C",
    "log10(fluorescence lifetime)": 1.15
  },
  {
    "molecule": "O=S1(=O)c2ccccc2C2(c3cc(-c4ccc(N(c5ccccc5)c5ccccc5)cc4)ccc3-c3ccc(-c4ccc(N(c5ccccc5)c5ccccc5)cc4)cc32)c2ccccc21",
    "log10(fluorescence lifetime)": 0.18
  },
  {
    "molecule": "C(=C\\c1nc(/C=C/c2ccc(-n3c4ccccc4c4ccccc43)cc2)nc(/C=C/c2ccc(-n3c4ccccc4c4ccccc43)cc2)n1)/c1ccc(-n2c3ccccc3c3ccccc32)cc1",
    "log10(fluorescence lifetime)": 0.61
  },
  {
    "molecule": "COC(=O)c1ccc(Oc2ccc3c4c(cccc24)C(=O)N(c2c(C(C)C)cccc2C(C)C)C3=O)cc1",
    "log10(fluorescence lifetime)": 0.53
  },
  {
    "molecule": "COc1cc(OC)cc(C2=[O+][B-](F)(F)OC(c3cccs3)=C2)c1",
    "log10(fluorescence lifetime)": 0.66
  },
  {
    "molecule": "CC(C)(C)c1ccc(N(c2ccccc2)c2ccc3ccc4c(N(c5ccccc5)c5ccc(C(C)(C)C)cc5)ccc5ccc2c3c54)cc1",
    "log10(fluorescence lifetime)": 0.79
  },
  {
    "molecule": "C[Si]1(C)c2ccc(-c3cccs3)cc2C=Cc2cc(-c3cccs3)ccc21",
    "log10(fluorescence lifetime)": 0.30
  },
  {
    "molecule": "N#Cc1ccc(N(c2ccc(C#N)cc2)c2ccc3c4cccc5c(N(c6ccc(C#N)cc6)c6ccc(C#N)cc6)ccc(c6cccc2c63)c54)cc1",
    "log10(fluorescence lifetime)": 0.55
  },
  {
    "molecule": "COc1ccc(/C=C/C2=[O+][B-](F)(F)OC(/C=C/c3ccc(OC)cc3)=C2c2ccc(OC)cc2)cc1",
    "log10(fluorescence lifetime)": 0.12
  },
  {
    "molecule": "COc1cc(N(c2ccccc2)c2ccccc2)ccc1C=C(C#N)C#N",
    "log10(fluorescence lifetime)": -1.22
  },
  {
    "molecule": "C[Si]1(C)c2cc(-c3ccc(-c4cccs4)s3)ccc2C=Cc2ccc(-c3ccc(-c4cccs4)s3)cc21",
    "log10(fluorescence lifetime)": -0.03
  },
  {
    "molecule": "c1ccn(-c2ccc(-c3cc(-c4ccc(-n5cccc5)cc4)cc(-c4ccc(-n5cccc5)cc4)c3)cc2)c1",
    "log10(fluorescence lifetime)": 0.47
  },
  {
    "molecule": "CC(=O)c1nc(-c2ccc(N(C)C)cc2)oc1C",
    "log10(fluorescence lifetime)": 0.57
  },
  {
    "molecule": "CCN(CC)c1ccc2c(c1)oc(=O)c1c(C)nc3c(c(-c4ccccc4)nn3-c3ccccc3)c12",
    "log10(fluorescence lifetime)": 0.55
  },
  {
    "molecule": "C(=C\\N1CCCC1)/c1nc2ccccc2nc1-c1ccccc1",
    "log10(fluorescence lifetime)": 1.01
  },
  {
    "molecule": "CCCCC(CC)COc1ccc2nc(-c3ccc(-c4ccc(OC)cc4)s3)sc2c1 (stereo unspecified)",
    "log10(fluorescence lifetime)": 0.18
  },
  {
    "molecule": "N#CC1=c2c3cccc4c(Br)ccc(c43)n2[B-](F)(F)[n+]2ccccc21",
    "log10(fluorescence lifetime)": 0.89
  },
  {
    "molecule": "CC(C)(C)NC(=O)c1ccc2ccc3cccc4c3c2c1c1c2ccccc2c2ccccc2c41",
    "log10(fluorescence lifetime)": 1.08
  },
  {
    "molecule": "F[B-]1(F)n2c(c3cccc4cccc2c43)=Nc2sc3ccccc3[n+]21",
    "log10(fluorescence lifetime)": 0.82
  }
]

* * *

Parameter: fluorescence lifetime. Scope: all listed entries.
Assay: solvent given as SMILES
Details: in CC#N
quantity kind: fluorescence lifetime (ns)

[
  {
    "compound": "Cc1cc(C)c(C2=[N+]3C(=Cc4c(C)cc(C)n4[B-]3(F)F)c3ccccc32)[nH]1",
    "unit string": "ns",
    "result": 4.34
  },
  {
    "compound": "CCCCOC(=O)c1ccccc1-c1c2ccc(=[N+](CC)CC)cc-2oc2cc(N(CC)CC)ccc12",
    "unit string": "ns",
    "result": 1.61
  },
  {
    "compound": "N#Cc1ccc2c(c1)CCc1nc(-c3ccc([N+](=O)[O-])cc3)c3c(c1-2)CCc1cc(C#N)ccc1-3",
    "unit string": "ns",
    "result": 1.11
  },
  {
    "compound": "COC(=O)C12N=N[C@](C(=O)OC)(C3C4CCC(C4)C31)[C@@]1(C)C[C@@H]21 (some centres not stated)",
    "unit string": "ns",
    "result": 116
  },
  {
    "compound": "CCN(CC)c1ccc(/C=C/c2ccc(-c3ccc(/C=C/c4ccc(N(CC)CC)cc4)s3)s2)cc1",
    "unit string": "ns",
    "result": 1.14
  },
  {
    "compound": "Cc1c[nH]c(=O)[nH]c1=O",
    "unit string": "ns",
    "result": 0.0002
  },
  {
    "compound": "CN(C)c1cccc2c1-c1ccccc1C2=O",
    "unit string": "ns",
    "result": 4.2
  },
  {
    "compound": "CCN(CC)c1ccc2cc(-c3nc4ccccc4n3C)c(=O)oc2c1",
    "unit string": "ns",
    "result": 2.8
  },
  {
    "compound": "c1ccc(-c2nc(-c3ccc(-c4nc(-c5ccccc5)c(-c5ccccc5)[nH]4)cc3)[nH]c2-c2ccccc2)cc1",
    "unit string": "ns",
    "result": 1.11
  },
  {
    "compound": "CCCCCC(=O)c1c2c(c(C(=O)CCCCC)c3c1OC1(CCCC1)O3)OC1(CCCC1)O2",
    "unit string": "ns",
    "result": 20.3
  },
  {
    "compound": "COC(=O)C(Cc1ccc2oc(-c3ccc(N(C)c4ccccc4)cc3)nc2c1)NC(=O)OC(C)(C)C (configuration not stated)",
    "unit string": "ns",
    "result": 4.23
  },
  {
    "compound": "CN(C)CCCN1c2ccccc2Sc2ccc(C(F)(F)F)cc21",
    "unit string": "ns",
    "result": 2.66
  },
  {
    "compound": "c1ccc2c(-c3ccc4sc5ccccc5c4c3)c3ccccc3cc2c1",
    "unit string": "ns",
    "result": 4.5
  },
  {
    "compound": "Nc1nc2ccc(Br)cc2s1",
    "unit string": "ns",
    "result": 1.91
  },
  {
    "compound": "N#C/C=C/c1ccc2ccc3cccc4ccc1c2c34",
    "unit string": "ns",
    "result": 3
  },
  {
    "compound": "Cc1cc(C)c2nc3c(=O)[nH]c(=O)[nH]c3nc2c1",
    "unit string": "ns",
    "result": 1.24
  },
  {
    "compound": "CCN(CC)c1cccc(C=O)c1",
    "unit string": "ns",
    "result": 11.7
  },
  {
    "compound": "CCNc1cc2oc(=O)cc(C)c2cc1C",
    "unit string": "ns",
    "result": 3.5
  },
  {
    "compound": "[C-]#[N+]c1ccc(-c2ccc(NC)cc2)cc1",
    "unit string": "ns",
    "result": 1.8
  },
  {
    "compound": "Nc1ccc(/C=C/c2cccnc2)cc1",
    "unit string": "ns",
    "result": 0.18
  },
  {
    "compound": "CC(C)(C)c1ccc2c(c1)c1cc(C(C)(C)C)ccc1n2-c1ccc(C#Cc2cccc(C#Cc3ccc(-n4c5ccc(C(C)(C)C)cc5c5cc(C(C)(C)C)ccc54)cc3)c2)cc1",
    "unit string": "ns",
    "result": 5.51
  },
  {
    "compound": "CCOC(=O)CN1C(=O)C2=C(c3ccc(N4CCCCC4)cc3)N(CC(=O)OCC)C(=O)C2=C1c1ccccc1",
    "unit string": "ns",
    "result": 2.7
  }
]
